These entries and their values trace back to patent US6043357A.

molecular target: HIV-1 protease (Human immunodeficiency virus type 1 group M subtype B, UniProt P03369); experiment: biochemical; settings: Table 9; R isomer; read-out: IC50
Parameter measured: IC50 (nM)

Record smiles: CC[C@H](C)[C@@H]1NC(=O)[C@@H](NC[C@@H](O)[C@H](Cc2ccccc2)NC(=O)[C@@H](NC(=O)c2ccc3ccccc3n2)C(C)C)Cc2ccc(cc2)OCCCNC1=O
Readout number: 1
--
Record smiles: CC[C@H](C)[C@@H]1NC(=O)[C@@H](NC[C@@H](O)[C@H](Cc2ccccc2)NC(=O)[C@@H](NC(=O)[C@H](CC(C)C)NC(C)=O)C(C)C)Cc2ccc(cc2)OCCCCNC1=O
Readout number: 5
--
Record smiles: CC[C@H](C)[C@@H]1NC(=O)[C@@H](NC[C@@H](O)[C@H](Cc2ccccc2)NC(=O)O[C@H]2CCOC2)Cc2ccc(cc2)OCCCNC1=O
Readout number: 15
--
Record smiles: CC[C@H](C)[C@@H]1NC(=O)[C@@H](NC[C@H](Cc2ccccc2)NC(=O)OC(C)(C)C)Cc2ccc(cc2)OCCCNC1=O
Readout number: 150

1: CC[C@H](C)[C@@H]1NC(=O)[C@@H](NC[C@@H](O)[C@H](Cc2ccccc2)NC(=O)[C@@H](NC(=O)[C@H](CC(C)C)NC(C)=O)C(C)C)Cc2ccc(cc2)OCCCNC1=O
2: CC[C@H](C)[C@@H]1NC(=O)[C@@H](NC[C@@H](O)[C@H](Cc2ccccc2)NC(=O)OC(C)(C)C)Cc2ccc(cc2)OCCCNC1=O
**Q:** Param pair: 1 , 2 . Output: the one whose IC50 is numerically greater. Select an item and report its label.
**A:** 2
(2: 15 nM, 1: 2 nM)

###

Entries and their measured IC50 follow.
target: HIV-1 protease (Human immunodeficiency virus type 1 group M subtype B, UniProt P03369); test: biochemical
# value in nM; strip the unit string

Observe how each entry below is paired with its result.
Compound: CC(C)N(C(=O)[C@@H]1CCCN1C[C@@H](O)[C@@H]1Cc2ccc(cc2)OCCCC(=O)N[C@@H](CC(N)=O)C(=O)N1)C(C)C
Parameter measured: IC50
Unit abbrev: nM
Readout number: 106000
--
Compound: CC[C@H](C)[C@H](NC(=O)[C@@H]1CCCN1C[C@@H](O)[C@@H]1Cc2ccc(cc2)OCC(=O)N[C@H](CCC(N)=O)C(=O)N[C@@H](CC(N)=O)C(=O)N1)C(=O)N[C@H](C(N)=O)C(C)C
Parameter measured: IC50
Unit abbrev: nM
Readout number: 40
--
Compound: CC(C)CNC(=O)C(Cc1ccccc1)NC[C@H](O)[C@@H]1Cc2ccc(cc2)OCCCC(=O)N[C@@H](CC(N)=O)C(=O)N1 (some centres unmarked)
Parameter measured: IC50
Unit abbrev: nM
Readout number: 5200

The recorded IC50 with HIV-1 protease (Human immunodeficiency virus type 1 group M subtype B, UniProt P03369) for CC[C@H](C)[C@H](NC(=O)[C@@H]1CCCN1C[C@H](O)[C@@H]1Cc2ccc(cc2)OCCCC(=O)N[C@@H](CC(N)=O)C(=O)N1)C(=O)N[C@H](C(N)=O)C(C)C was 39

The recorded IC50 with HIV-1 protease (Human immunodeficiency virus type 1 group M subtype B, UniProt P03369) for CC(C)(C)NC(=O)CN(Cc1ccccc1)C[C@@H](O)[C@@H]1Cc2ccc(cc2)OCCCC(=O)N[C@@H](CC(N)=O)C(=O)N1 was 1500
